Reported log10 of Ki is given for each of the following compounds.
Molecular target: Full-length human recombinant N-term FLAG-tagged MASTL protein (Homo sapiens, UniProt Q96GX5)
Sequence (Q96GX5 1-879): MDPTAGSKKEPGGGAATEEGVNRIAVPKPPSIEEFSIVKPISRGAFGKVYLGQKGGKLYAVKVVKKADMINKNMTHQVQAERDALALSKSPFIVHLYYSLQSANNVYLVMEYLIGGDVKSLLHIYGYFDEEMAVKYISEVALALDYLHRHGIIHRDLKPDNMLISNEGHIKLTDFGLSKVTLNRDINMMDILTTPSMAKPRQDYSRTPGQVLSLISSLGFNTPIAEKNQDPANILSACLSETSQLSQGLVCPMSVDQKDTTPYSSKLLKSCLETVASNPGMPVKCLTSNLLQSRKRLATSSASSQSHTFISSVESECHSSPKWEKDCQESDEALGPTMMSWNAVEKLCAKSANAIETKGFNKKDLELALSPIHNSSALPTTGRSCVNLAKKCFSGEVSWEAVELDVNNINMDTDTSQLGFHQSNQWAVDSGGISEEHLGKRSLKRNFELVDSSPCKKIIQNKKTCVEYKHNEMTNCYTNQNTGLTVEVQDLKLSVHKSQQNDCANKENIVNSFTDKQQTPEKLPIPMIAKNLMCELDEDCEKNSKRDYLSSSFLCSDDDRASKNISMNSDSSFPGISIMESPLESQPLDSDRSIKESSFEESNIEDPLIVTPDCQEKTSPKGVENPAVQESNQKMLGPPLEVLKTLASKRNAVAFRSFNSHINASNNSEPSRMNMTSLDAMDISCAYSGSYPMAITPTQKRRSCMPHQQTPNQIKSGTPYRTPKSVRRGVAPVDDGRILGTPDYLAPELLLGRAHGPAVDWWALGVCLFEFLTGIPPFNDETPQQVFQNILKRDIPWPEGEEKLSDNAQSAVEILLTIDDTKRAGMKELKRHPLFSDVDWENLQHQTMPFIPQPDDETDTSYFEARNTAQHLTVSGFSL
Assay: MASTL enzyme kinase assay (CHEF PhosphoSens)
Details: MASTL Ki (nM), 3 nM MASTL, 1 mM ATP, room temperature; geometric mean of at least 3 independent determinations (* denotes n = 2)
Values reflect log10 of reported Ki (nM).

Data request: Identify measured log10 of Ki corresponding to CNC(C)(c1ccnc(Nc2cc3cc(-c4cnnn4C)nc(N)c3cn2)c1)C(C)C (single isomer, unassigned) [Example 31]
Data returned: -1.52

Data request: Identify measured log10 of Ki corresponding to CNC(c1ccnc(Nc2cc3cc(-c4cnnn4C)nc(N)c3cn2)c1)C(C)(C)C (single isomer, unassigned) [Example 34]
Data returned: -0.64

Data request: Identify measured log10 of Ki corresponding to Cn1nncc1-c1cc2cc(Nc3cc(C(C)(N)CC(F)(F)F)ccn3)ncc2c(N)n1 (single isomer, unassigned) [Example 25]
Data returned: -1.11

Data request: Identify measured log10 of Ki corresponding to Cn1nncc1-c1cc2cc(Nc3cc(C(C)(N)C(F)(F)F)ccn3)ncc2c(N)n1 (single isomer, unassigned) [Example 28]
Data returned: -1.03

Continuing:
Data request: Identify measured log10 of Ki corresponding to Cn1nncc1-c1cc2cc(Nc3cc(C(N)CC(F)(F)F)ccn3)ncc2c(N)n1 (single isomer, unassigned) [Example 17]
Data returned: -0.92

Data request: Identify measured log10 of Ki corresponding to Cn1nncc1-c1cc2cc(Nc3cc(C(C)(N)CC(F)(F)F)ccn3)ncc2c(N)n1 (single isomer, unassigned) [Example 26]
Data returned: -1.12

Data request: Identify measured log10 of Ki corresponding to CNC(C)(c1ccnc(Nc2cc3cc(-c4cnnn4C)nc(N)c3cn2)c1)C1CC1 (single isomer, unassigned) [Example 19]
Data returned: -1.33

Data request: Identify measured log10 of Ki corresponding to CCC(N)(CC)c1cc(Nc2cc3cc(-c4cnnn4C)nc(N)c3cn2)ncn1 [Example 23]
Data returned: -1.24

Data request: Identify measured log10 of Ki corresponding to Cn1nncc1-c1cc2cc(Nc3cc(C(C)(N)C(F)(F)F)ccn3)ncc2c(N)n1 (single isomer, unassigned) [Example 29]
Data returned: -0.77

Data request: Identify measured log10 of Ki corresponding to CN(C)C(C)(C)c1ccnc(Nc2cc3cc(-c4cnnn4C)nc(N)c3cn2)c1 [Example 36]
Data returned: -1.21
